TESTED ON: TbPLK^as (analogue-sensitive Trypanosoma brucei Polo-like kinase) (Trypanosoma brucei, UniProt Q57VI0, C57V/L118G)
Sequence (Q57VI0 1-768 C57V/L118G): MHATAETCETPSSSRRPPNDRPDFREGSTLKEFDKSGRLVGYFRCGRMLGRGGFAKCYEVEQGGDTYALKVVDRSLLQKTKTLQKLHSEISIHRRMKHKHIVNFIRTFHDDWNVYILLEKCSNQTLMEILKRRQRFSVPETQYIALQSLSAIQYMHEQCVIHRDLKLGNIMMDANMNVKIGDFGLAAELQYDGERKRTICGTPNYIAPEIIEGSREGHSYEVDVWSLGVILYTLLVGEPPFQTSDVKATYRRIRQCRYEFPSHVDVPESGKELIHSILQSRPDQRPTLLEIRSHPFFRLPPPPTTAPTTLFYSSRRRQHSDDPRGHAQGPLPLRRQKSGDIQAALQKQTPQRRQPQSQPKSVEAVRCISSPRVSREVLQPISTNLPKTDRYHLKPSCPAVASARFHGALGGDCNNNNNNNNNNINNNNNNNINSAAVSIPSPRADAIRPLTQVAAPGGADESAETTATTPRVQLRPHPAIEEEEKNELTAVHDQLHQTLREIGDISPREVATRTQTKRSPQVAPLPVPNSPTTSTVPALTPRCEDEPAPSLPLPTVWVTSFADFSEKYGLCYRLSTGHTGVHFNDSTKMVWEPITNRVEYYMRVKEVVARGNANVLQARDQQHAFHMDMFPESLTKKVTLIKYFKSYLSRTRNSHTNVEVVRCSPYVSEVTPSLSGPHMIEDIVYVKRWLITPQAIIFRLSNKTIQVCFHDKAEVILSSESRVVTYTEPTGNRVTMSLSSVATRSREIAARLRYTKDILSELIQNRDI
pIC50: −log10 of the molar value.
MEASUREMENT NAME: pIC50

Check the records and state pIC50 for Cc1cccc(Cc2nn(C(C)(C)C)c3ncnc(N)c23)c1 [3MB-PP1]
~6.60
